# System: HOP-62 NSCLC
# test.name: NCI tumour cell line growth inhibition, 48 h
I'd be grateful if you could share measured TGI for these entries.

compound	assayed.target	TGI
CC1=NN(C(=O)CC(=O)N(C(=O)c2ccccc2Cl)c2ccc(C)cc2)C(=O)C1N=Nc1ccc([N+](=O)[O-])cc1 (stereo unspecified)	HOP-62 NSCLC	> 100 µM
COCCOc1cnc2ccn([C@H](C)c3nnc4c(F)cc(-c5cnn(C)c5)cn34)c(=O)c2c1	HOP-62 NSCLC	> 100 µM
O=c1[nH]c2cc(Cl)ccc2nc1/C(=N\O)C(O)c1ccc(Cl)cc1Cl (stereo unspecified)	HOP-62 NSCLC	> 100 µM
Cc1cc(C2(O)C=C(C(C)(C)C)C(=O)C(C(C)(C)C)=C2)c(C)cc1C1(O)C=C(C(C)(C)C)C(=O)C(C(C)(C)C)=C1	HOP-62 NSCLC	> 100 µM
CN(C)Cc1cc(C(=O)/C=C/c2ccccc2Cl)cc(CN(C)C)c1O	HOP-62 NSCLC	26.2 µM
Cc1cc(C)cc(Nc2cc(=O)[nH]c(=O)[nH]2)c1	HOP-62 NSCLC	> 100 µM
NC1=NS(=O)(=O)Nc2nc(-c3ccc([N+](=O)[O-])o3)[nH]c21	HOP-62 NSCLC	32.4 µM
COc1ccc(OC)c2c(/C=C/c3ccc(N(C)C)cc3)ccnc12	HOP-62 NSCLC	> 10 µM
Nc1ccc2[nH]c3c(-c4ccccc4)nccc3c2c1	HOP-62 NSCLC	> 100 µM
Cc1cc(C2CC(O)C(CO)O2)cc2c(=O)[nH]c(N)nc12 (stereo unspecified)	HOP-62 NSCLC	> 100 µM

# batch size: 2; output TGI per entry
1. Cc1ccc2c(c1)[nH]c1cc(C(F)(F)F)ccc1[p+]2=O (stereo unspecified)
2. Oc1cn(-c2ccc(Cl)cc2)nc1-c1n[nH]c(=S)n1C1CCCCC1

Found:
1. > 100 µM
2. > 100 µM

# batch size: 6; output TGI per entry
1. CC1=NN2C(=N)/C(=C/c3ccco3)C(=O)N=C2S1
2. CCOC(=N)CC(=O)Nc1cccc(C)c1C
3. C=C1C(=O)CC2C(=O)C(C)(O)CC/C=C(\C)C(=O)CC12 (stereo unspecified)
4. N=C(N)c1ccc(N=Nc2c(O)ccc3c2[nH]c2ccccc23)cc1
5. O=C(CSc1nnc(Cc2ccccc2)o1)Nc1ccc([N+](=O)[O-])cc1
6. N#C/C(=C/N1CCN(C(=O)c2ccco2)C1=S)C(=O)c1ccccc1

Found:
1. > 100 µM
2. > 100 µM
3. > 100 µM
4. > 100 µM
5. > 100 µM
6. 47 µM

# batch size: 3; output TGI per entry
1. CN(NC(=O)c1cccs1)C1=NCCCN1
2. COc1cc(C2=C(c3cn(C)c4ccccc34)COC2=O)cc(OC)c1OC
3. Cc1cc(NS(=O)(=O)c2ccc(Nc3c4ccccc4nc4c(C(=O)NCCN(C)C)cccc34)cc2)no1

Found:
1. > 100 µM
2. > 34.8 µM
3. 6.57 µM
